The entries below are paired with their reported Human Plasma APTT 1.5x.
# Tested on: Pooled human plasma
# PROCEDURE DETAILS: In vitro anticoagulant effect in human plasma (aPTT, EC1.5x)
# Format: biochemical
# EXPERIMENTAL CONDITIONS: 37 °C for 10 minutes
RESULT TYPE: Human Plasma APTT 1.5x

- STRUCTURE NOTATION: "C[C@@H]1CCC[C@H](n2cnc(-c3cc(Cl)ccc3-n3cc(C(F)(F)F)nn3)cc2=O)c2cc(cc(F)c2F)-c2c(cnn2C(F)F)NC1=O"
  TESTED TARGET: "Pooled human plasma"
  MEASURED RESULT: "0.28 µM"
- STRUCTURE NOTATION: "[2H]C([2H])([2H])n1ncc2c1-c1cc(F)c(F)c(c1)[C@@H](n1cnc(-c3c(-n4cc(Cl)nn4)ccc(Cl)c3F)cc1=O)CCC[C@@H](C)C(=O)N2"
  TESTED TARGET: "Pooled human plasma"
  MEASURED RESULT: "0.24 µM"
- STRUCTURE NOTATION: "[2H]C([2H])([2H])n1ncc2c1-c1cc(F)c(F)c(c1)[C@@H](n1ccc(-c3cc(Cl)ccc3-n3cc(C(F)(F)F)nn3)cc1=O)CCC[C@@H](C)C(=O)N2"
  TESTED TARGET: "Pooled human plasma"
  MEASURED RESULT: "0.22 µM"

###

System: UniProt:P17538 | Read-out: IC50
Sequence (P17538 34-164 limits assumed, other chains not shown): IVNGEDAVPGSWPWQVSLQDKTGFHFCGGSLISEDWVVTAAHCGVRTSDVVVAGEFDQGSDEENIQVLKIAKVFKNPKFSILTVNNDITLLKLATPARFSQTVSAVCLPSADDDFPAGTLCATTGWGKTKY
Sequence (P17538 167-263 limits assumed, other chains not shown): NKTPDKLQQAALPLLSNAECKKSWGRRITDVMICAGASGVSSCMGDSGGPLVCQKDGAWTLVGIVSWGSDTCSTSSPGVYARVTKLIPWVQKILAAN
RESULT TYPE: IC50 (µM)

- MOLECULE: "[2H]C([2H])([2H])n1ncc2c1-c1cc(cc(F)c1F)[C@@H](n1cnc(-c3c(-n4cc(C(F)(F)F)nn4)ccc(Cl)c3F)cc1=O)CCC[C@@H](C)C(=O)N2"
  MEASURED RESULT: 0.164
- MOLECULE: "[2H]C([2H])([2H])n1ncc2c1-c1cc(F)c(F)c(c1)[C@@H](n1cnc(-c3c(-n4cc(C(F)(F)F)nn4)ccc(Cl)c3F)cc1=O)CCC[C@@H](C)C(=O)N2"
  MEASURED RESULT: 0.173
- MOLECULE: "[2H]C([2H])([2H])n1ncc2c1-c1cccc(c1)[C@@H](n1cnc(-c3cc(Cl)ccc3-n3cc(Cl)nn3)cc1=O)CCC[C@@H](C)C(=O)N2 [Comparative compound 2, reference compound]"
  MEASURED RESULT: 0.0792
- MOLECULE: "[2H]C([2H])([2H])n1ncc2c1-c1cc(F)cc(c1)[C@@H](n1cnc(-c3cc(Cl)ccc3-n3cc(Cl)nn3)cc1=O)CCC[C@@H](C)C(=O)N2 [Comparative compound 3, reference compound]"
  MEASURED RESULT: 0.103

###

The entries below are paired with their reported IC50.
# TESTED TARGET: Human Factor XIa (Homo sapiens, UniProt P03951)
# Sequence (P03951 388-625 limits assumed): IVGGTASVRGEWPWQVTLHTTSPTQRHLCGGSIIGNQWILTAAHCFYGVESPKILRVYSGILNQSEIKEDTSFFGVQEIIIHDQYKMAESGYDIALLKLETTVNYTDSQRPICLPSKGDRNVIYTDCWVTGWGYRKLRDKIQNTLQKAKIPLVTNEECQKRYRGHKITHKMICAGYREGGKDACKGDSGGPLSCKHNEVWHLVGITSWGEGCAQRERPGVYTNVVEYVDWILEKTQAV
# Sequence (P03951 19-387 partner limits assumed): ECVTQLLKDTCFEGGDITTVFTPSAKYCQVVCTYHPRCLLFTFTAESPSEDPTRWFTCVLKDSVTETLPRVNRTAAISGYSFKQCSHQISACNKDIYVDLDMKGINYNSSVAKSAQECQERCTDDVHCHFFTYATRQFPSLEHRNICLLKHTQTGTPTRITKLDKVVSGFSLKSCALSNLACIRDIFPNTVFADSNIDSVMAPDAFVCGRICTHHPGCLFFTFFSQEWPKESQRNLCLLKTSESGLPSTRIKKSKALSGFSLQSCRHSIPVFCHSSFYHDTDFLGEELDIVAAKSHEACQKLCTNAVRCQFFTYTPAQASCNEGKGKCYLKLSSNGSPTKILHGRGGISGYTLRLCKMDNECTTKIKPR
# PROCEDURE DETAILS: Inhibition of human coagulation Factor XIa by absorbance method (S-2366 substrate, 405 nm)
# EXPERIMENTAL CONDITIONS: incubated at 37 °C for 20 minutes; substrate 800 µM; read-out: Recombinant Enzyme FXIa IC50
# Procedure: • Enzyme: Human Factor XIa (ENZYME […], Cat. No. HFXIa 1111a) • Substrate: S-2366™ (CHROMOGENIX, Cat. No. 82109039) • Buffer: 145 mM NaCl, 5 mM KCl, 1 mg/mL PEG 8000, 30 mM HEPES, pH 7.4. Test compounds dissolved in 100% DMSO at 10 mM were diluted with 100% DMSO to concentrations of 1000 µM, 200 µM, 40 µM, 8 µM, 1.6 µM, 0.32 µM, 0.064 µM, 0.0128 µM, 0.00256 µM, and 0.00128 µM. […] Finally, 100 µL of substrate (800 µM) was added to each well, and the absorbance was measured at 405 nm. […]

- STRUCTURE NOTATION: "[2H]C([2H])([2H])n1ncc2c1-c1cc(cc(F)c1F)[C@@H](n1cnc(-c3c(-n4cc(C(F)(F)F)nn4)ccc(Cl)c3F)cc1=O)CCC[C@@H](C)C(=O)N2"
  IC50: "400 pM"
- STRUCTURE NOTATION: "[2H]C([2H])([2H])n1ncc2c1-c1cc(F)c(F)c(c1)[C@@H](n1ccc(-c3cc(Cl)ccc3-n3cc(C(F)(F)F)nn3)c(F)c1=O)CCC[C@@H](C)C(=O)N2"
  IC50: "300 pM"
- STRUCTURE NOTATION: "C[C@@H]1CCC[C@H](n2cnc(-c3c(-n4cc(C(F)(F)F)nn4)ccc(Cl)c3F)cc2=O)c2cc(cc(F)c2F)-c2c(cnn2C(F)F)NC1=O"
  IC50: "290 pM"
